Biological target: MAPK10A (Homo sapiens)
Construct: purchased in-house DSF kinase panel (SGC-style construct names; the trailing letter is the construct ID)
Sequence (P53779 39-402): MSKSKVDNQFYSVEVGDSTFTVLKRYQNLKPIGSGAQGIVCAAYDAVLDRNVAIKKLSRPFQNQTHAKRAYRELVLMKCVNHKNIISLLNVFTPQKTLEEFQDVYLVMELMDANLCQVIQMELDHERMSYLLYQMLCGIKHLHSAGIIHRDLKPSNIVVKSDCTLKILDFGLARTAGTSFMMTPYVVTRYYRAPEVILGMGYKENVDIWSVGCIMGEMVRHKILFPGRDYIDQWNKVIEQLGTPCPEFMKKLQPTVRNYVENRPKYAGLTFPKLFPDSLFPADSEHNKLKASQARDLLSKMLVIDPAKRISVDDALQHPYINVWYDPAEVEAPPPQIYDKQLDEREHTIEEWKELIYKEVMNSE
Test: DSF Tm panel
Type: binding
Settings: 10 μM compound
Each record here notes measured ΔTm at 10 µM.
Express the result in °C but write the number alone.

Known ΔTm at 10 µM results, listed for orientation:
[[record]]
compound = "COc1ccccc1CNC(=O)Nc1ccc2cc1OCCOCCNc1ccn3ncc-2c3n1 [compound 29]"
quantity_unit = "°C"
experimental_result = 0.3

[[record]]
compound = "C[C@H](NC(=O)Nc1ccc2cc1OCCOCCNc1ccn3ncc-2c3n1)c1ccccc1 [compound 34]"
quantity_unit = "°C"
experimental_result = 0.1

[[record]]
compound = "COc1cccc(CNC(=O)Nc2ccc3cc2OCCOCCNc2ccn4ncc-3c4n2)c1 [compound 30]"
quantity_unit = "°C"
experimental_result = 0.5

[[record]]
compound = "O=C(NCc1ccc(C(F)(F)F)cc1)Nc1ccc2cc1OCCOCCNc1ccn3ncc-2c3n1 [compound 28]"
quantity_unit = "°C"
experimental_result = 1.1

[[record]]
compound = "Cc1ccc(F)cc1CNC(=O)Nc1ccc2cc1OCCOCCNc1ccn3ncc-2c3n1 [compound 26]"
quantity_unit = "°C"
experimental_result = 0.5

[[record]]
compound = "O=C(NCc1ccccc1C(F)(F)F)Nc1ccc2cc1OCCOCCNc1ccn3ncc-2c3n1 [compound 27]"
quantity_unit = "°C"
experimental_result = 0.7

[[record]]
compound = "Cc1cc(Cl)ccc1CNC(=O)Nc1ccc2cc1OCCOCCNc1ccn3ncc-2c3n1 [compound 23]"
quantity_unit = "°C"
experimental_result = 1

[[record]]
compound = "COc1cc(CNC(=O)Nc2ccc3cc2OCCOCCNc2ccn4ncc-3c4n2)ccc1F [compound 33]"
quantity_unit = "°C"
experimental_result = 0.7

[[record]]
compound = "CN1CCN(C(=O)Nc2ccc3cc2OCCOCCNc2ccn4ncc-3c4n2)CC1 [compound 35]"
quantity_unit = "°C"
experimental_result = -0.7

[[record]]
compound = "COc1ccc(CNC(=O)Nc2ccc3cc2OCCOCCNc2ccn4ncc-3c4n2)cc1F [compound 32]"
quantity_unit = "°C"
experimental_result = 0.8


Request: Please report the measured ΔTm at 10 µM for O=C(NCc1ccc(Cl)cc1Cl)Nc1ccc2cc1OCCOCCNc1ccn3ncc-2c3n1 [compound 20]
Response: 1.6

Request: Return ΔTm at 10 µM (reported value) for this compound: Cc1cc(Br)ccc1CNC(=O)Nc1ccc2cc1OCCOCCNc1ccn3ncc-2c3n1 [compound 24]
Response: 0.5

Request: Supply recorded ΔTm at 10 µM for O=C(NCc1ccc(Cl)cc1)Nc1ccc2cc1OCCOCCNc1ccn3ncc-2c3n1 [compound 19] here.
Response: 0.8

Request: Recall and state the measured ΔTm at 10 µM for O=C(NCc1ccc(Cl)cc1F)Nc1ccc2cc1OCCOCCNc1ccn3ncc-2c3n1 [compound 21] .
Response: 1.4

Request: Quickly give me recorded ΔTm at 10 µM for O=C(NCc1cccc(Cl)c1)Nc1ccc2cc1OCCOCCNc1ccn3ncc-2c3n1 [compound 18]
Response: 0.6

Request: Give ΔTm at 10 µM for COc1ccc(CNC(=O)Nc2ccc3cc2OCCOCCNc2ccn4ncc-3c4n2)cc1 [compound 31]
Response: 0.7

Request: Identify the reported ΔTm at 10 µM for the following entry. O=C(NCc1ccccc1Cl)Nc1ccc2cc1OCCOCCNc1ccn3ncc-2c3n1 [compound 17]
Response: 0.2

Request: Return ΔTm at 10 µM for the following compound: O=C(NCc1ccccc1)Nc1ccc2cc1OCCOCCNc1ccn3ncc-2c3n1 [compound 16]
Response: -0.3

###

Target: ABL1 (ABL1A) (Homo sapiens)
Construct: purchased in-house DSF kinase panel (SGC-style construct names; the trailing letter is the construct ID)
Sequence (P00519 229-512): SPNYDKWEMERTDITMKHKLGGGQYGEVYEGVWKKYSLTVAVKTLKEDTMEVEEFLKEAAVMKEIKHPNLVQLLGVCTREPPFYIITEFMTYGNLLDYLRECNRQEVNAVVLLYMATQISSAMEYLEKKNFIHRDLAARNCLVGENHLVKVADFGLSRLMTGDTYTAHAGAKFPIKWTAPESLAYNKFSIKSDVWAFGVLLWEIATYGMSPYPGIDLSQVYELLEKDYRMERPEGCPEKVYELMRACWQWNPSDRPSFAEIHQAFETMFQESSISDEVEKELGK
Assay: DSF Tm panel
Assay type: binding
Settings: 10 μM compound
measured.endpoint: ΔTm at 10 µM (°C)
Just the number in °C, nothing appended.

[[record]]
substance_smiles = "O=C(NCc1ccc(Cl)cc1F)Nc1ccc2cc1OCCOCCNc1ccn3ncc-2c3n1"
measured_endpoint = "ΔTm at 10 µM"
experimental_result = 2.3


Request: Respond only with ΔTm at 10 µM recorded for COc1ccc(CNC(=O)Nc2ccc3cc2OCCOCCNc2ccn4ncc-3c4n2)cc1F
Response: 1.7

Request: Report measured ΔTm at 10 µM; entry is Cc1cc(Cl)ccc1CNC(=O)Nc1ccc2cc1OCCOCCNc1ccn3ncc-2c3n1
Response: 1.7

Request: Given O=C(NCc1ccccc1Cl)Nc1ccc2cc1OCCOCCNc1ccn3ncc-2c3n1 , respond with its ΔTm at 10 µM.
Response: 1.7

Request: For the compound O=C(NCc1ccccc1)Nc1ccc2cc1OCCOCCNc1ccn3ncc-2c3n1 , report ΔTm at 10 µM.
Response: 1.2

Request: For Cc1ccc(F)cc1CNC(=O)Nc1ccc2cc1OCCOCCNc1ccn3ncc-2c3n1 , write its ΔTm at 10 µM.
Response: 0.6

Request: Find the measured ΔTm at 10 µM of O=C(NCc1ccc(Cl)cc1)Nc1ccc2cc1OCCOCCNc1ccn3ncc-2c3n1 and report it.
Response: 1.8

Request: Return the recorded ΔTm at 10 µM value; entry: C[C@H](NC(=O)Nc1ccc2cc1OCCOCCNc1ccn3ncc-2c3n1)c1ccccc1
Response: 1.3

###

Molecular target: FGFR1B (Homo sapiens, UniProt P11362)
Construct: purchased in-house DSF kinase panel (SGC-style construct names; the trailing letter is the construct ID)
Sequence (P11362 456-767): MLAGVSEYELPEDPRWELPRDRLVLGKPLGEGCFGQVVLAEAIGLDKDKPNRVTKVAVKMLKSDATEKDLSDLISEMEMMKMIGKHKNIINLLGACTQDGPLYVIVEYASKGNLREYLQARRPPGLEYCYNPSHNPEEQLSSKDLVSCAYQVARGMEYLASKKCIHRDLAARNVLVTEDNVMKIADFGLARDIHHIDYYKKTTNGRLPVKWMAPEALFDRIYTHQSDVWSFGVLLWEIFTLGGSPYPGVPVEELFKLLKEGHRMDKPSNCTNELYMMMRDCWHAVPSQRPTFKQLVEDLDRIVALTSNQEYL
Assay: DSF Tm panel
Type: binding
Conditions: 10 μM compound
# ΔTm at 10 µM per entry
// note: answer is a bare numeric in °C

See these solved cases before continuing.
[[record]]
substance_smiles = "O=C(NCc1ccccc1)Nc1ccc2cc1OCCOCCNc1ccn3ncc-2c3n1"
target_or_test_system = "FGFR1B (Homo sapiens, UniProt P11362)"
quantity_unit = "°C"
experimental_result = 2.4

[[record]]
substance_smiles = "COc1cc(CNC(=O)Nc2ccc3cc2OCCOCCNc2ccn4ncc-3c4n2)ccc1F"
target_or_test_system = "FGFR1B (Homo sapiens, UniProt P11362)"
quantity_unit = "°C"
experimental_result = 1.9


Request: Give recorded ΔTm at 10 µM. COc1ccccc1CNC(=O)Nc1ccc2cc1OCCOCCNc1ccn3ncc-2c3n1
Response: 1.4

Request: Give the measured ΔTm at 10 µM for C[C@H](NC(=O)Nc1ccc2cc1OCCOCCNc1ccn3ncc-2c3n1)c1ccccc1
Response: 1.2

Request: Using the record for COc1ccc(CNC(=O)Nc2ccc3cc2OCCOCCNc2ccn4ncc-3c4n2)cc1F , state its measured ΔTm at 10 µM.
Response: 1.2

Request: Could you please provide reported ΔTm at 10 µM for O=C(NCc1ccccc1C(F)(F)F)Nc1ccc2cc1OCCOCCNc1ccn3ncc-2c3n1 ? Thanks!
Response: 1.3

Request: Supply reported ΔTm at 10 µM belonging to this molecule: Cc1cc(Cl)ccc1CNC(=O)Nc1ccc2cc1OCCOCCNc1ccn3ncc-2c3n1
Response: 1.1

Request: Fill in ΔTm at 10 µM for record O=C(NCc1cccc(Cl)c1)Nc1ccc2cc1OCCOCCNc1ccn3ncc-2c3n1
Response: 2

###

Target: K2A2 (CSNK2A2A) (Homo sapiens)
Construct: purchased in-house DSF kinase panel (SGC-style construct names; the trailing letter is the construct ID)
Sequence (P19784 whole entry): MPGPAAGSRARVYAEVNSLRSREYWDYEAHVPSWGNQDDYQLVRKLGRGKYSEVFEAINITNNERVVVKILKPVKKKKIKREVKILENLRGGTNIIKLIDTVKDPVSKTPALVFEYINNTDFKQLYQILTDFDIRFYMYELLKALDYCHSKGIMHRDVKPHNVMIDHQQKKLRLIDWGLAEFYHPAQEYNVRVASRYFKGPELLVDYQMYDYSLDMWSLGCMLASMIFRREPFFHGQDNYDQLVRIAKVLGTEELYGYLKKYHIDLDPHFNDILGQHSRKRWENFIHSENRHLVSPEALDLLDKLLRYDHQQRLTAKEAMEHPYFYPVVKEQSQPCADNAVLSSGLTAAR
Experiment: DSF Tm panel
Type: binding
Details: 10 μM compound
measured.endpoint: ΔTm at 10 µM (°C)
State just the number; it will be interpreted in °C.

In the examples that follow, each entry is paired with its recorded ΔTm at 10 µM.
[[record]]
substance_smiles = "COc1cccc(CNC(=O)Nc2ccc3cc2OCCOCCNc2ccn4ncc-3c4n2)c1"
measured_endpoint = "ΔTm at 10 µM"
experimental_result = 0.8

[[record]]
substance_smiles = "O=C(NCc1ccccc1C(F)(F)F)Nc1ccc2cc1OCCOCCNc1ccn3ncc-2c3n1"
measured_endpoint = "ΔTm at 10 µM"
experimental_result = 0.7

[[record]]
substance_smiles = "Cc1cc(Cl)ccc1CNC(=O)Nc1ccc2cc1OCCOCCNc1ccn3ncc-2c3n1"
measured_endpoint = "ΔTm at 10 µM"
experimental_result = 2.8

[[record]]
substance_smiles = "COc1cc(CNC(=O)Nc2ccc3cc2OCCOCCNc2ccn4ncc-3c4n2)ccc1F"
measured_endpoint = "ΔTm at 10 µM"
experimental_result = 1.7

[[record]]
substance_smiles = "O=C(NCc1ccc(Cl)cc1F)Nc1ccc2cc1OCCOCCNc1ccn3ncc-2c3n1"
measured_endpoint = "ΔTm at 10 µM"
experimental_result = 4.2


Request: Kindly indicate its recorded ΔTm at 10 µM. Item: O=C(NCc1cccc(Cl)c1)Nc1ccc2cc1OCCOCCNc1ccn3ncc-2c3n1
Response: 3.1

Request: Give me measured ΔTm at 10 µM, please, for this compound: Cc1cc(Br)ccc1CNC(=O)Nc1ccc2cc1OCCOCCNc1ccn3ncc-2c3n1
Response: 0.5

Request: For the compound O=C(NCc1ccccc1Cl)Nc1ccc2cc1OCCOCCNc1ccn3ncc-2c3n1 , give its measured ΔTm at 10 µM value.
Response: 4
